- TARGET_SYSTEM: PKM2 (Homo sapiens, UniProt P14618)
- Sequence (P14618 whole entry): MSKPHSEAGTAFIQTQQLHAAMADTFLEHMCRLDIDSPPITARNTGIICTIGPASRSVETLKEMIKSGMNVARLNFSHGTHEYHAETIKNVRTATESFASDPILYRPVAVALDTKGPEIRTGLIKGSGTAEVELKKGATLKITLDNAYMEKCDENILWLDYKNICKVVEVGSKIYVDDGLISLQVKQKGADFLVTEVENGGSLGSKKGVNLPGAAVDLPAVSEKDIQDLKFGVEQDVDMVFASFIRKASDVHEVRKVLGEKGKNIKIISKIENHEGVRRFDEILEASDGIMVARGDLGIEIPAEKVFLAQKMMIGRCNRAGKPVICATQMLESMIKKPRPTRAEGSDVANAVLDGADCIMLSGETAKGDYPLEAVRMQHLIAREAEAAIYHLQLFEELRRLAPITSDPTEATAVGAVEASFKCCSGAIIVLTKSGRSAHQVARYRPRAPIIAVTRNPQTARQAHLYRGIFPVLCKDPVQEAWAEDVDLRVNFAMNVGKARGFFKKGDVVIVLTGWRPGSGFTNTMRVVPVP
- RUN_DESCRIPTION: PKM2 activation biochemical assay (AC50 / max. response vs fructose 1,6-bisphosphate)
- ASSAY_CONDITIONS: % maximum response in a biochemical assay as compared with Fructose 1,6-bisphosphate
Reported Max. Resp. (%) is given for each of the following compounds.

[
  {
    "COMPOUND": "O=C(c1cc(C(F)(F)F)n[nH]1)N(CCC1CC1)Cc1ccccc1F",
    "Max. Resp. (%)": 100
  },
  {
    "COMPOUND": "CCCC(C)N(Cc1ccccc1)C(=O)c1cc(C(F)(F)F)n[nH]1 (stereo not drawn)",
    "Max. Resp. (%)": 22
  },
  {
    "COMPOUND": "O=C(c1cc(C(F)(F)F)n[nH]1)N(Cc1ccccc1Cl)CC1CCCN1 (stereo not drawn)",
    "Max. Resp. (%)": 85
  },
  {
    "COMPOUND": "O=C(c1cc(C(F)(F)F)n[nH]1)N(CCN1CCCCC1)Cc1c(Cl)cccc1Cl",
    "Max. Resp. (%)": 100
  },
  {
    "COMPOUND": "O=C(c1cc(C(F)(F)F)n[nH]1)N(CCN1CCC(F)(F)CC1)Cc1ccccc1Cl",
    "Max. Resp. (%)": 100
  },
  {
    "COMPOUND": "O=C(c1cc(Cl)n[nH]1)N(Cc1cccc2[nH]c(=O)sc12)CC1CCC1",
    "Max. Resp. (%)": 80
  },
  {
    "COMPOUND": "O=C(c1cc(C(F)(F)F)n[nH]1)N(Cc1ccc(O)cc1F)CC1CCC1 [Compound 244]",
    "Max. Resp. (%)": 107
  },
  {
    "COMPOUND": "Cc1ccc2nc(Cn3cnc4ccccc43)cc(=O)n2c1",
    "Max. Resp. (%)": 149
  },
  {
    "COMPOUND": "O=C(c1cc(C(F)(F)F)n[nH]1)N(Cc1cccc(Cl)c1O)CC1CCC1",
    "Max. Resp. (%)": 100
  },
  {
    "COMPOUND": "CC1CC(C)CN(CCN(Cc2ccccc2Cl)C(=O)c2cc(C(F)(F)F)n[nH]2)C1 (stereo not drawn)",
    "Max. Resp. (%)": 60
  },
  {
    "COMPOUND": "O=C(c1cc(C(F)(F)F)n[nH]1)N(CCC1CCS(=O)(=O)C1)Cc1c(F)cccc1F (stereo not drawn)",
    "Max. Resp. (%)": 102
  },
  {
    "COMPOUND": "O=C(c1cc(C(F)(F)F)n[nH]1)N(CCC1CCSCC1)Cc1ccccc1F",
    "Max. Resp. (%)": 95
  },
  {
    "COMPOUND": "CCN(CC)CCN(Cc1c(Cl)cccc1Cl)C(=O)c1cc(C(F)(F)F)n[nH]1",
    "Max. Resp. (%)": 100
  },
  {
    "COMPOUND": "CC1CCCCN1CCN(Cc1cc(N)ccc1Cl)C(=O)c1cc(C(F)(F)F)n[nH]1 (stereo not drawn)",
    "Max. Resp. (%)": 100
  },
  {
    "COMPOUND": "CS(=O)(=O)N1CCCC(CCN(Cc2ccccc2Cl)C(=O)c2cc(C(F)(F)F)n[nH]2)C1 (stereo not drawn)",
    "Max. Resp. (%)": 100
  },
  {
    "COMPOUND": "Nc1cccc(Cl)c1CN(CCN1CCCC(O)C1)C(=O)c1cc(C(F)(F)F)n[nH]1 (stereo not drawn)",
    "Max. Resp. (%)": 100
  },
  {
    "COMPOUND": "O=C(c1cc(C(F)(F)F)n[nH]1)N(CCN1CCS(=O)(=O)CC1)Cc1ccccc1Cl",
    "Max. Resp. (%)": 85
  },
  {
    "COMPOUND": "COCCCN(Cc1ccccc1Cl)C(=O)c1cc(C(F)(F)F)n[nH]1",
    "Max. Resp. (%)": 82
  },
  {
    "COMPOUND": "O=C(c1cc(C(F)(F)F)n[nH]1)N(CCN1CCCC1)Cc1cccc2nc[nH]c12",
    "Max. Resp. (%)": 100
  },
  {
    "COMPOUND": "O=C(CCSC(=S)NCc1cccnc1)c1ccccc1Cl",
    "Max. Resp. (%)": 63
  },
  {
    "COMPOUND": "O=C(c1cc(C(F)(F)F)n[nH]1)N(Cc1ccccc1Cl)CC1CCC1",
    "Max. Resp. (%)": 100
  }
]
